- system name: PARG (Homo sapiens, UniProt Q86W56)
- Sequence (Q86W56 whole entry): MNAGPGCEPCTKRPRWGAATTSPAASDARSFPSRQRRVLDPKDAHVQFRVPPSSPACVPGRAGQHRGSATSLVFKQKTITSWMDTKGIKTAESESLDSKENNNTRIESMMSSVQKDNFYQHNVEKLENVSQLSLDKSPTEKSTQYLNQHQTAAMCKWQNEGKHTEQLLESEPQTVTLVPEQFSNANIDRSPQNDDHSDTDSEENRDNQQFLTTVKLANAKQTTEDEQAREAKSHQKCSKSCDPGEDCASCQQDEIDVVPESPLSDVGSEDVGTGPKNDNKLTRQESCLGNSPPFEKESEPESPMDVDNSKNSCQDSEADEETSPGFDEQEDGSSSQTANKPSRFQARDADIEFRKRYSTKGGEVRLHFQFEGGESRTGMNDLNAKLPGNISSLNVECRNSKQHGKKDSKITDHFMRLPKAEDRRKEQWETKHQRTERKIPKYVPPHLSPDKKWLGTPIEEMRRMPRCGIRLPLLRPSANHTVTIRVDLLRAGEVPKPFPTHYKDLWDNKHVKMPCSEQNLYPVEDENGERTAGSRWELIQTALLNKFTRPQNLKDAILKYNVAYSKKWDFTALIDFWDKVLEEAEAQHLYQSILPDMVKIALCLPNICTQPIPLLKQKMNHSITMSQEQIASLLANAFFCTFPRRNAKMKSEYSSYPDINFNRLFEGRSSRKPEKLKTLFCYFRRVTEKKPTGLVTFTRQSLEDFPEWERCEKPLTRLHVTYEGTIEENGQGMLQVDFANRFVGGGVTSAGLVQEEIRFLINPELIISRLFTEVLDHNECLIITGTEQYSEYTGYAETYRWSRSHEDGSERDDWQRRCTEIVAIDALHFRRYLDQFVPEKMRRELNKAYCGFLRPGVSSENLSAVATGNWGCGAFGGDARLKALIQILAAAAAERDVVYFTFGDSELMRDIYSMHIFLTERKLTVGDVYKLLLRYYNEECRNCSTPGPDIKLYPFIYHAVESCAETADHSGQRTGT
- assay details: Biochemical assay (PARG, TFMU-ADPr substrate)
- experimental conditions: PARG, TFMU-ADPr substrate
Each record here notes measured IC50.
observation type: IC50 (nM)

CC(C)C(=O)N1CCN(c2cc(S(=O)(=O)NC3(CF)CC3)cn3c(-c4nnc(C(F)F)s4)nnc23)CC1 [Example 100]; 1.99
CC(C)C(=O)N1CCN(c2cc(S(=O)(=O)NC3(C#N)CC3)cn3c(-c4nnc(C(F)F)s4)cnc23)C[C@H]1C [Example 206]; 21.9
CC1(NS(=O)(=O)c2cc(N3CCN(C(=O)[C@@H]4CCCN4)CC3)c3cnc(-c4nnc(C(F)(F)F)s4)n3c2)CC1 [Example 316]; 4.46
C[C@@H]1CN(c2cc(S(=O)(=O)NC3(C#N)CC3)cn3c(-c4nnc(C(F)F)s4)ncc23)[C@@H](C)CN1C(=O)C1(C)CC1 [Example 93]; 75.9
CC(C)[C@@H]1CN(c2cc(S(=O)(=O)NC3(C#N)CC3)cn3c(-c4nnc(C(F)F)s4)ncc23)CCN1C(=O)C1(C)CC1 [Example 96]; 2.09
CC(C)C(=O)N1CCN(c2cc(S(=O)(=O)NC3(C#N)CC3)cn3c(-c4cc5n(n4)CCCC5F)cnc23)CC1 (stereo not drawn) [Example 8]; 9690

Reference for the values: patent US20260258035A1
